Data credit: patent US20060223792A1

Each entry below lists one item and its recorded pIC50 value.
- System: recombinant human LTA4 hydrolase (rhLTA4H) (Homo sapiens, UniProt P09960)
- Construct: made in house; host or cells: Spodoptera frugiperda (Sf-9) cells, baculovirus (pFastBac1)
- Sequence (P09960 1-611): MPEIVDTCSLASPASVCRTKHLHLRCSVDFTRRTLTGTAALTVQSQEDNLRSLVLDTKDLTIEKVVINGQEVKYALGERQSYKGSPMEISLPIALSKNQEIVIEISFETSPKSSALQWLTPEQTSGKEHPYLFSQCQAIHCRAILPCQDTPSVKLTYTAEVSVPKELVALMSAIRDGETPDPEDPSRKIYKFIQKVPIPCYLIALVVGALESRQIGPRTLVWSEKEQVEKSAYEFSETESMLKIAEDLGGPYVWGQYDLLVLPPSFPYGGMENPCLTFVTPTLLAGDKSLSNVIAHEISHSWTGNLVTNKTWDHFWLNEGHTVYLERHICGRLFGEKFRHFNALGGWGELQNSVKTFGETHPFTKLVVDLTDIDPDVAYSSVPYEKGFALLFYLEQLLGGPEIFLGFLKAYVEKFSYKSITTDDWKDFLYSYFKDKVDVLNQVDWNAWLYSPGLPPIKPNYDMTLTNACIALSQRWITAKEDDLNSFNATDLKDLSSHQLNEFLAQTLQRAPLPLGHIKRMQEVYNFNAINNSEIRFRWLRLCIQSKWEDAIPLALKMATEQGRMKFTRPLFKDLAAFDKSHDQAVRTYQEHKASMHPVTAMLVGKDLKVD
- Experiment: Recombinant human LTA4 hydrolase assay for LTA4 hydrolase inhibitor activity
- Format: biochemical
- Test Settings: recombinant human LTA4H, LTB4 quantified by enzyme-linked immunoassay; average of one to three determinations; read-out: IC50
pIC50: −log10 of the molar value.
Parameter: pIC50

O=C(Nc1ccccc1)Oc1ccc(CCN2CCCC2)cc1 | 8.40
O=C(Cc1ccccc1)Oc1ccc(OCCN2CCCCC2)cc1 | 9.00
O=C(Nc1cccs1)Oc1ccc(OCCN2CCCCC2)cc1 | 8.15
CC(=O)N1CCC(N(CCC(=O)O)CCc2ccc(OCCc3ccccc3)cc2)CC1 | 9.15
O=C(O)C1CCN(CCOc2ccc(OCCCc3ccccc3)cc2)CC1 | 7.29
OC(COc1ccc(OCCN2CCCCC2)cc1)c1ccccc1 (stereo not drawn) | 8.30
O=C(Nc1cccc(Cl)c1)Oc1ccc(OCCN2CCCCC2)cc1 | 7.19
CCCN(CCOc1ccc(OC(=O)Nc2ccccc2)cc1)CC1CC1 | 8.40
O=C(Nc1cccc(O)c1)Oc1ccc(OCCN2CCC(O)(c3ccccc3)CC2)cc1 | 9.52

* * *

- System: recombinant human LTA4 hydrolase (rhLTA4H) (Homo sapiens)
- Construct: made in house; host or cells: Spodoptera frugiperda (Sf-9) cells, baculovirus (pFastBac1)
- Sequence (P09960 1-611): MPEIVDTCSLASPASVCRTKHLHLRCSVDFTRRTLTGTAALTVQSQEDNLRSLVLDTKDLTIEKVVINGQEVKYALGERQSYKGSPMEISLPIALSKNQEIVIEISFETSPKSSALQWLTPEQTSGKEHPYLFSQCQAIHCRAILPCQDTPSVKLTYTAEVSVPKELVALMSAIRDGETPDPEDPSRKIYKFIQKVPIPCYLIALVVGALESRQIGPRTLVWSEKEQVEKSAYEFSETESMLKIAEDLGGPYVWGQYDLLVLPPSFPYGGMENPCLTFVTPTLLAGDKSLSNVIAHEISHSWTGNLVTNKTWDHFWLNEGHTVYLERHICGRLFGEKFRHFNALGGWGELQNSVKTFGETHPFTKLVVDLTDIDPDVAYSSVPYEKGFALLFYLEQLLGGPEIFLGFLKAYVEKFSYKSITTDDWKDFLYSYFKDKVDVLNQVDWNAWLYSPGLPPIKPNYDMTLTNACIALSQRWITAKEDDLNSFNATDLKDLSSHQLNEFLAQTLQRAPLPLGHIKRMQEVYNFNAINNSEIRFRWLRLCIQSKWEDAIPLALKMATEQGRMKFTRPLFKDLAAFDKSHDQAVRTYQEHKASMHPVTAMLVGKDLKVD
- Experiment: Recombinant human LTA4 hydrolase assay for LTA4 hydrolase inhibitor activity
- Format: biochemical
- Test Settings: recombinant human LTA4H, LTB4 quantified by enzyme-linked immunoassay; average of one to three determinations; read-out: IC50
pIC50: −log10 of the molar value.
Label Fulfilled when pIC50 is at or above 8; anything below gets Not fulfilled.

CCOC(=O)CCN(CCc1ccc(OCCc2ccccc2)cc1)C1CCCCC1 | Fulfilled
COC(=O)NC1CCN(Cc2ccc(OCCc3ccccc3)cc2)CC1 | Not fulfilled
CN(C(=O)Oc1ccc(OCCN2CCC(C(=O)O)CC2)cc1)c1cccc(O)c1 | Not fulfilled
O=C(Nc1ccccc1)Oc1ccc(OCCN2CCC(O)CC2)cc1 | Fulfilled
O=C(Nc1ccccc1)Oc1ccc(OCCN2CCC(O)(c3ccccc3)CC2)cc1 | Fulfilled
